Test system: Vero E6
protocol.details: cell viability relative to DMSO; higher = less toxic
condition.set: 72 h; 10 nM

molecule | cell viability [%]
Clc1cccc(Cl)c1NC1=NCCN1 | 101
Cc1nc(Nc2ncc(C(=O)Nc3c(C)cccc3Cl)s2)cc(N2CCN(CCO)CC2)n1 | 93.1
CC(=O)[C@@]12O[C@](C)(c3ccccc3)O[C@@H]1C[C@H]1[C@@H]3CCC4=CC(=O)CC[C@]4(C)[C@H]3CC[C@@]12C [algestone-acetophenide] | 96.6
CCCCCCCCCCCCCCCCCCCCCCCCCCCCO | 98.5
N[C@H](C(=O)O)[C@H](O)c1ccc(O)c(O)c1 | 102
O=C(CN1CCN(Cc2ccc3c(c2)OCO3)CC1)N1c2ccccc2Sc2ccccc21 | 98.2
CC(C)(COP(=O)(O)OP(=O)(O)OC[C@H]1O[C@@H](n2cnc3c(N)ncnc32)[C@H](O)[C@@H]1OP(=O)(O)O)[C@@H](O)C(=O)NCCC(=O)NCCS | 102
Cc1ccc(OC[C@@H](O)[C@H](C)NC(C)C)c2c1CCC2 (racemic) | 94.2
FC(F)OC(F)(F)C(F)Cl (stereo not given) | 103
O=C(NCc1ccccn1)Nc1nnc(-c2ccco2)o1 | 104
CC(C)(O)CC(=O)NCCn1ccc2ncnc(Nc3ccc(Oc4cccc(C(F)(F)F)c4)c(Cl)c3)c21 | 92.8
COc1cc2nc(N3CCC(N4CCCCC4)CC3)nc(NC3CCCCCC3)c2cc1OC | 102
C[C@@H]1O[C@@H](O[C@H]2[C@H](Oc3cc(O)c(C(=O)CCc4ccc(O)cc4)c(O)c3)O[C@H](CO)[C@@H](O)[C@@H]2O)[C@H](O)[C@H](O)[C@H]1O [naringin-dihydrochalcone] | 104
CC(C)(C)NCC(O)c1cc(Cl)c(N)c(Cl)c1 (stereo not given) | 101
c1ccc(COCCCc2c[nH]cn2)cc1 | 95.8
C=CCN1CCCC1CNC(=O)c1cc2nn[nH]c2cc1OC (stereo not given) [alizapride] | 97.3
Cc1cc(Cl)ccc1OCCCC(=O)NO | 99.4
CN(CCCN1c2ccccc2CCc2ccccc21)CC(=O)c1ccc(Cl)cc1 | 102
CCNC(=O)/C=C/c1cccc(Br)c1 [cinromide] | 83.6
COc1cc(C(=O)N2CCOCC2)cc(OC)c1OC | 107
CNC(=O)[C@H]1O[C@@H](n2cnc3c(NCc4cccc(I)c4)ncnc32)[C@H](O)[C@@H]1O | 97.1
COc1ccc(/C=C\c2cc(OC)c(OC)c(OC)c2)cc1OP(=O)(O)O | 100
NCC(=O)Nc1ccc(-n2nc(C(F)(F)F)cc2-c2ccc3c(ccc4ccccc43)c2)cc1 | 94.3
c1ccc(CNc2ncnc3[nH]cnc23)cc1 | 104
C[C@]12CC[C@H](O)CC1=CC[C@@H]1[C@@H]2CC[C@]2(C)C(c3cccnc3)=CC[C@@H]12 | 95.2
CN(C)c1cccc(-c2c3c(=O)n(-c4ccccc4Cl)[nH]c3cc(=O)n2C)c1 | 104
Cc1cc(Nc2ncc(Cl)c(Nc3ccccc3S(=O)(=O)C(C)C)n2)c(OC(C)C)cc1C1CCNCC1 | 101
O=C(N/N=C/c1ccccc1O)c1ccccc1O | 100
CO/N=C(\C(=O)N[C@@H]1C(=O)N2C(C(=O)O)=C(CSc3nc(C)c(CC(=O)O)s3)CS[C@H]12)c1csc(N)n1 | 95.8
CC1(C)S[C@@H]2[C@H](NC(=O)[C@H](NC(=O)N3CCNC3=O)c3ccccc3)C(=O)N2[C@H]1C(=O)O | 96.8
CCOC(=O)c1ccccc1OC(=O)CCCCCCCC(=O)Oc1ccccc1C(=O)OCC | 101
O=C(O)[C@H](O)[C@@H](O)[C@H](O)[C@H](O)CO [sodium-gluconate] | 107
O=C(c1ccc(CN2CCOCC2)cc1)N1CCN(C2CC2)CC1 | 104
COc1cc2/c(=N/c3ccc(Br)cc3F)nc[nH]c2cc1OCC1CCN(C)CC1 | 100
CC1(c2ccccc2)OC(C(=O)O)=CC1=O (stereo not given) | 96.1

----------
Test system: Vero E6
protocol.details: cell viability relative to DMSO; higher = less toxic
condition.set: 72 h; 100 nM
# reported cell viability; entries follow
measure: cell viability (%)

compound | measure | value.units | recorded.number
COc1ccc(/C=C\c2cc(OC)c(OC)c(OC)c2)cc1OP(=O)(O)O | cell viability | % | 38.4
Nc1nc(NCCNc2ncc(-n3ccnc3)c(-c3ccc(Cl)cc3Cl)n2)ccc1[N+](=O)[O-] | cell viability | % | 94.2
C=CC(C)(O)CCC=C(C)C (centres undefined) | cell viability | % | 96.3
CCNC(=O)/C=C/c1cccc(Br)c1 [cinromide] | cell viability | % | 97.1
CN(C)CCN(Cc1cccs1)c1ccccn1 | cell viability | % | 101
CN1C(=O)N(c2cc(Cl)cc(Cl)c2)C(=O)[C@]12CN(Cc1cc(C(=O)O)cs1)C[C@H]2c1ccc(C#N)cc1 | cell viability | % | 95.5
CNC(=O)CN1CCC(Oc2cc3c(Nc4cccc(Cl)c4F)ncnc3cc2OC)CC1 | cell viability | % | 78.3
CN(C[C@@H]1COCCO1)S(=O)(=O)Nc1ccc2ccc3ncc(-c4cnn(C)c4)cc3c(=O)c2c1 | cell viability | % | 97.3
CCS(=O)(=O)N(C)[C@H]1c2cc(C#N)ccc2OC(C)(C)[C@@H]1O [chromanol-293B-(-)-[3R,4S]] | cell viability | % | 98.2

----------
System: Calu-3
protocol.details: cell viability relative to DMSO; higher = less toxic
condition.set: 72 h; 1000 nM
measure: cell viability (%)

compound | experimental.system | measure | value.units | recorded.number
Cc1cc(OCc2nnc(SC3CCCC3)n2-c2cccnc2)ccc1-c1ccc(S(C)(=O)=O)cc1 [NMS-873] | Calu-3 | cell viability | % | 85.3
CN(C)CCOC(=O)COc1ccc(Cl)cc1 [meclofenoxate] | Calu-3 | cell viability | % | 106
CCc1cccc(CC)c1NC1=NCCN1 [ST-91] | Calu-3 | cell viability | % | 89.6
COc1cc(C(=O)N2CCOCC2)cc(OC)c1OC [trimetozine] | Calu-3 | cell viability | % | 92.1
COc1ccc2[nH]c(SCc3ncc(C)c(OC)c3C)nc2c1 [omeprazole-sulfide] | Calu-3 | cell viability | % | 103
O=C(NCCCN1CCOCC1)c1ccc(Cl)cc1 [eprobemide] | Calu-3 | cell viability | % | 92.2
Clc1ccc(CCCOCCCN2CCCCC2)cc1 [pitolisant] | Calu-3 | cell viability | % | 90.6
COc1ccc(Cl)cc1C(=O)NCCc1ccc(C(=O)O)cc1 [meglitinide] | Calu-3 | cell viability | % | 96.8
OCCn1cc(-c2ccc3c(c2)CC/C3=N\O)c(-c2ccncc2)n1 [GDC-0879] | Calu-3 | cell viability | % | 107
C#CC[C@H](c1nc2cc(Cl)ccc2c(=O)n1Nc1ccccc1)N(CCCN)C(=O)c1cccc(Cl)c1F [ARQ-621] | Calu-3 | cell viability | % | 86.7
CCn1c(=O)n(C2=C(CO)CN(CC3CCCCCCC3)CC2)c2ccccc21 [trap-101] | Calu-3 | cell viability | % | 104
Cc1cc(C)c(CNC(=O)c2cc(-c3ccc(N4CCN(C)CC4)nc3)cc3c2c(C)cn3C(C)C)c(=O)[nH]1 [GSK503] | Calu-3 | cell viability | % | 109
Cn1cnc([N+](=O)[O-])c1Sc1ncnc2[nH]cnc12 [azathioprine] | Calu-3 | cell viability | % | 94.4
O=C(O)c1ccc(N2C(=O)/C(=C/c3ccc(-c4ccc([N+](=O)[O-])cc4)o3)C=C2c2ccccc2)cc1 [4E1RCat] | Calu-3 | cell viability | % | 87.3
O=C(c1ccc(Cl)o1)N1CC2CNCC2C1 (centres undefined) [AZD1446] | Calu-3 | cell viability | % | 89.4
CC1(c2ccccc2)OC(C(=O)O)=CC1=O (centres undefined) [acifran] | Calu-3 | cell viability | % | 95.3
C[C@H](N)C(=O)N[C@@]1(C(=O)O)C[C@@H](Sc2nnc[nH]2)[C@H]2[C@H](C(=O)O)[C@H]21 | Calu-3 | cell viability | % | 114
Cc1cc(C2CCCCC2)n(O)c(=O)c1 [ciclopirox] | Calu-3 | cell viability | % | 95.7
Cc1ccc(OC[C@@H](O)[C@H](C)NC(C)C)c2c1CCC2 (racemic) [ICI-118,551] | Calu-3 | cell viability | % | 105

----------
Test system: Calu-3
protocol.details: cell viability relative to DMSO; higher = less toxic
condition.set: 72 h; 100 nM
measure: cell viability (%)

compound | recorded.number
CC(=O)C1=C(O)C=C2Oc3c(C(C)=O)c(O)c(C)c(O)c3C2(C)C1=O (stereo not drawn) [usniacin-(+)] | 95.2
O=C(CN1CCN(Cc2ccc3c(c2)OCO3)CC1)N1c2ccccc2Sc2ccccc21 [fenoverine] | 99.2
O=C(O)c1ccc(N2C(=O)/C(=C/c3ccc(-c4ccc([N+](=O)[O-])cc4)o3)C=C2c2ccccc2)cc1 [4E1RCat] | 95.2
Cc1ccc(OC[C@@H](O)[C@H](C)NC(C)C)c2c1CCC2 (racemic) [ICI-118,551] | 109
CSCC[C@H](NC(=O)[C@H](Cc1ccccc1)NC(=O)CNC(=O)CNC(=O)[C@@H](N)Cc1ccc(O)cc1)C(=O)O [metenkephalin] | 105
Cc1c(F)cc(C(=O)NC2CC2)cc1-c1c(F)cn2c(C(C)(C)C)nnc2c1F [AL-8697] | 97
CS(=O)(=O)c1ccc([C@@H](CC2CCCC2)C(=O)Nc2nccs2)cc1 [Ro-28-1675] | 114
CC(C)NCC(O)COc1cccc2ccccc12 (stereo not drawn) [propranolol] | 99.4
